molecular target: recombinant human TFPI (tissue factor pathway inhibitor) (human, UniProt P10646 29-304); assay: cell-based or functional assay
measured-parameter: % of Normalized, TF/FVIIa/FX complex assay, Ab 6.25 nM (%)
# output: bare number, implied unit %

Prompt: What does the data say about its % of Normalized, TF/FVIIa/FX complex assay, Ab 6.25 nM? Entry: clone 3203 (antibody, V domains shown) VH: EVQLVESGGGLVKPGGSLRLSCAASGFTFSSYAMSWVRQAPGKGLEWVSTITTGGSYTYYADSVEGRFTISRDNAKNSLYLQMNSLRAEDTAVYYCARQDGNFLMDYWGQGTLVTVSS VL: DVVMTQTPLSLPVTLGQPASISCKSSQSLLDLDGKTYLNWLQQRPGQSPKRLIYLVSKLDSGVPDRFTGSGSGTDFTLKISRVEAEDVGVYYCWQGTHFPFTFGQGTKVEIKR
Completion: 18.9
